procedureText: HUVEC growth inhibition – cell-based, human, primary screen (AID 575);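 also: 100% = median of untreated cell wells with 0.1% DMSO on each plate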
conditionNotes: HUVEC proliferation, CellTiter-Glo luminescence, 72 h; at 10 µM; stronger effect = lower value
experimentalReadout: viability (%)

molecule="CCCNC(=O)NC(C(=O)OC)C12CC3CC(CC(C3)C1)C2 (stereo not drawn)" resultnumber=80.4
molecule=CCc1nnc(NC(=O)c2ccc(COc3ccccc3)o2)s1 resultnumber=77.9
molecule=CCOC(=O)N1CCC(NC(=O)CCc2c(C)nc3c(c(C)nn3C(C)(C)C)c2C)CC1 resultnumber=82.2

###

procedureText: reducers of endogenous Her2 protein level, primary screen, SKBR3 breast tumor cells, AlphaScreen, ATP viability (AID 461);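 also: percent of carrier control wells set as 100% viability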
conditionNotes: 18-24 h, measured here: SKBR3 viability, ATP luminescence, at 10 µM
experimentalReadout: viability (%)

compound=O=C(Nc1cccc(C(=O)N2CCOCC2)c1)c1cccnc1 experimentalreadout=viability valueunits=% resultnumber=99.5
compound=O=c1cc(CN2CCN(c3ccc(F)cc3)CC2)nc2sccn12 experimentalreadout=viability valueunits=% resultnumber=85
compound=CCOC(=O)c1c(C)[nH]c(C)c1C(=O)COc1ccc(NC(=O)c2ccco2)cc1 experimentalreadout=viability valueunits=% resultnumber=88.5
compound="O=C(NCCN1CCOCC1)C1CC(=O)N(c2ccc(F)c(Cl)c2)C1 (centres undefined)" experimentalreadout=viability valueunits=% resultnumber=124
